system: Vero; experiment: Comparative Potency (IC50s) at HSV-1 passage 5 in vero cells; type: functional, cell-based; conditions: Chlorocebus sabaeus
ENDPOINT_LABEL: IC50 (µM)

INSERT INTO results (compound, assay_target, meas_value) VALUES
  ('COc1ccc(C[C@@H](C)[C@@H](C)Cc2ccc(OC)c(OC)c2)cc1OC [TERAMEPROCOL]', 'Vero', 6.48),
  ('Nc1nc2c(ncn2COCCO)c(=O)[nH]1 [ACYCLOVIR]', 'Vero', 111);
